tested on: NCI-H460; assay: NCI tumour cell line growth inhibition, 48 h
The source made the active and inactive calls. Rule as the data show it: active = GI50 up to about 1.1 µM and inactive = higher.
measuredAttribute: GI50

molecule: c1ccc(CN2CCN3CCN(CC2)CCN(Cc2ccccc2)CC3)cc1
GI50: 6.15 µM (inactive)

### Prompt Kindly indicate its recorded GI50. Item: `Cc1cc(C)nc(NS(=O)(=O)c2ccc(NC(=O)c3cccc4c(N)c5ccccc5nc34)cc2)n1`
### Response > 100 µM (inactive)

### Prompt Kindly indicate its recorded GI50. Item: `CC1(C)COC(c2cccc(C3=NC(C)(C)CO3)c2Br)=N1`
### Response > 100 µM (inactive)

### Prompt Kindly indicate its recorded GI50. Item: COC(=O)[C@]1(c2cc3ccccc3[nH]2)CC2CN(C(=O)OCc3ccccc3)C1CC2=O (stereo partly specified)
### Response 24.4 µM (inactive)

### Prompt Kindly indicate its recorded GI50. Item: `O=C1c2ccccc2C(=O)c2sc(Nc3ccc(Cl)c(Cl)c3)nc21`
### Response 12.5 µM (inactive)

### Prompt Kindly indicate its recorded GI50. Item: `O=C1NC(=O)[C@H]2C3C=CC([C@@H]12)[C@@H]1C(=O)NC(=O)[C@H]31`
### Response > 100 µM (inactive)

### Prompt Kindly indicate its recorded GI50. Item: `NCCCCCCNCc1cccc2ccccc12`
### Response > 100 µM (inactive)

### Prompt Kindly indicate its recorded GI50. Item: `O=c1oc2ccccc2c(Nc2ccc3c(c2)Oc2ccccc2O3)c1[N+](=O)[O-]`
### Response 42.2 µM (inactive)

### Prompt Kindly indicate its recorded GI50. Item: `CC1(C)CCC[C@](C)([C@H]2CC[C@]3(C)[C@@H]2[C@H](O)C[C@@H]2[C@@]4(C)CC[C@H](O)C(C)(C)[C@@H]4[C@H](O)C[C@]23C)O1`
### Response 10.1 µM (inactive)

### Prompt Kindly indicate its recorded GI50. Item: `Cc1ccc(C2=C(c3ccccc3)C(O)(c3ccccc3)C(c3ccccc3)=C2c2ccc(C)cc2)cc1`
### Response > 100 µM (inactive)

### Prompt Kindly indicate its recorded GI50. Item: `COC1(OC)CCCCCCCCC(OC)(OC)CCCCCCCC1`
### Response > 100 µM (inactive)

### Prompt Kindly indicate its recorded GI50. Item: Cc1nn(C(=O)c2ccccc2O)c2c1C(c1ccc3ccccc3c1O)SC(=N)N2 (stereo unspecified)
### Response 5.53 µM (inactive)

### Prompt Kindly indicate its recorded GI50. Item: `CC(=O)Nc1ccc2c(c1)C(=O)c1ccccc1-2`
### Response > 100 µM (inactive)

### Prompt Kindly indicate its recorded GI50. Item: OCC1CCCC1O (stereo unspecified)
### Response > 100 µM (inactive)

### Prompt Kindly indicate its recorded GI50. Item: `O=C(O)COc1ccc(C(=O)/C(SS/C(C(=O)c2ccc(OCC(=O)O)c(Cl)c2Cl)=C2\C=C(c3ccc(Cl)cc3)SS2)=C2/C=C(c3ccc(Cl)cc3)SS2)c(Cl)c1Cl`
### Response 19.1 µM (inactive)

### Prompt Kindly indicate its recorded GI50. Item: `O=C1CN(/N=C/c2ccc(-c3ccc(F)cc3)o2)C(=O)N1`
### Response 45.2 µM (inactive)
